Would you kindly list reporter increase for each of these molecules?
- TESTED TARGET: Wee1-like protein kinase (Homo sapiens) (UniProt P30291)
- METHOD DESCRIPTION: Wee1 degradation inhibitors, primary screen, cell-based, HeLa, Wee1K328M-luciferase, luminescence (AID 1321);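 note: cells exposed to compound for 20 h before luminescence read; 0% = DMSO alone and 100% = MG132 at 30 µM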
- STATED CONDITIONS: HeLa Luc-Wee1K328M stability, at 5 µM, stronger effect = higher value, 100% = proteasome inhibitor MG132 effect
In all, about 220,000 compounds went through this assay and about 2,600 (1.2%) were called active. This excerpt belongs to a sample that is enriched for actives.

# example entries with known answers
compound_string=N#Cc1ccc(Oc2ccc(C(F)(F)F)cc2NC(=O)c2ccc(F)cc2)cc1 observable="reporter increase" measurement="2.35% (inactive)"
compound_string=c1csc(-c2nnc(COc3ncnc4sccc34)o2)c1 observable="reporter increase" measurement="1.62% (inactive)"

Could I get reporter increase for every one of these entries?
1. O=C(N/N=C/c1ccco1)c1ccc(NC(=O)C2CC2)cc1
2. Cc1cc(C)nc(S/C=C/C(=O)c2ccccc2)n1

1. 1.48% (inactive)
2. 1.73% (inactive)

Could I get reporter increase for every one of these entries?
1. Oc1ccc2ccccc2c1C=Nc1ccccc1
2. O=C(N/N=C/c1ccco1)c1csc2c1CCCC2
3. Brc1ccc2nc(N3CCCC3)sc2c1
4. c1c2c(cc3sc(N4CCCCC4)nc13)OCCO2

["-2.84% (inactive)", "9.05% (active)", "18.3% (active)", "-3.23% (inactive)"]

Could I get reporter increase for every one of these entries?
1. COc1cc(C(F)(F)F)c(C(=O)N(C)c2ccc(Cl)cc2)cn1
2. COc1ccc(Cl)cc1CSc1ncn[nH]1
3. O=C(N/N=C/c1ccco1)c1ccc(C(=O)N/N=C/c2ccco2)o1

1: -1.97% (inactive); 2: -0.89% (inactive); 3: -0.09% (inactive)

For the molecule CC(=O)N1CCC(N(C(=O)Nc2ccc(Cl)cc2)C(C)C)CC1 , what reporter increase is on record?
-1.37% (inactive)

---

- TESTED TARGET: Wee1-like protein kinase (Homo sapiens)
- METHOD DESCRIPTION: Wee1 degradation inhibitors, primary screen, cell-based, HeLa, Wee1K328M-luciferase, luminescence (AID 1321)
- STATED CONDITIONS: HeLa Luc-Wee1K328M stability, at 5 µM, 100% = proteasome inhibitor MG132 effect
Screen size: about 220,000 compounds; about 2,600 (1.2%) were called active.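 Rule for the calls: active = activation above the mean of all tested compounds plus 3 SD, set per screening run (cut at about 8.8% in these data); inactive = the rest.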 What follows is part of a selection rich in actives, with near analogues and random picks from the rest.
Log the outcome using a class from class 1 for active, class 0 for inactive

# lookup: test call for CCCNC(=O)NCc1ccc(N2CCCC2=O)cc1
class 1

# lookup: test call for CC1CCC(NC(=O)c2ccc(N3CCCC3=O)cc2)CC1 (stereo unspecified)
class 0

# lookup: test call for CNC(=S)NNC(=O)c1oc2nc(-c3ccccc3)cc(-c3ccco3)c2c1N
class 0

---

- TESTED TARGET: Wee1-like protein kinase (Homo sapiens)
- METHOD DESCRIPTION: Wee1 degradation inhibitors, primary screen, cell-based, HeLa, Wee1K328M-luciferase, luminescence (AID 1321);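 note: cells exposed to compound for 20 h before luminescence read; 0% = DMSO alone and 100% = MG132 at 30 µM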
- STATED CONDITIONS: HeLa Luc-Wee1K328M stability, at 5 µM, stronger effect = higher value, 100% = proteasome inhibitor MG132 effect
Screen size: about 220,000 compounds; about 2,600 (1.2%) were called active. Shown is part of a subset that was picked to be rich in actives.
OBSERVABLE: reporter increase (%)
One number for each entry, in %.

# example entries with known answers
compound=O=C(Nc1cc(C(F)(F)F)ccc1Cl)C(=O)N1CCCCC1 observable="reporter increase" measurement=0.04
compound=COc1ccc(-n2ncc3c(N4CCc5ccccc54)ncnc32)cc1 observable="reporter increase" measurement=8.86
compound=Cc1ccc(NC(=O)/C(=C\c2ccccc2)NC(=O)c2ccco2)cc1 observable="reporter increase" measurement=2.36
compound="CC(CC(=O)Nc1cc(C(F)(F)F)ccc1Cl)c1ccccc1 (stereo unspecified)" observable="reporter increase" measurement=-1.69
compound=O=C(NC(=S)Nc1cccc2c(O)cccc12)c1cccc(Br)c1 observable="reporter increase" measurement=-1.09

Could I get reporter increase for every one of these entries?
1. COc1ccc(-n2ncc3c(N4CCCc5ccccc54)ncnc32)cc1
2. c1ccc(-n2ncc3c(N4CCCC4)ncnc32)cc1
3. Cc1ccsc1C(C(=O)NC1CCCCC1)N(C(=O)Cc1cccs1)C1CC1 (stereo unspecified)
4. COc1ccc(N=Nc2ccc(O)c(P(=O)(c3ccccc3)c3ccccc3)c2)cc1
5. Cc1ccccc1N(C(=O)Cc1cccs1)C(C(=O)NC1CCCCC1)c1cn(C)nc1C (stereo unspecified)
6. O=C(NNc1ccccc1Cl)C(O)(c1cccc(C(F)(F)F)c1)c1cccc(C(F)(F)F)c1

1: 3.61; 2: 5.02; 3: -1.86; 4: 2.24; 5: 12.1; 6: 16.5

---

- TESTED TARGET: Wee1-like protein kinase (Homo sapiens)
- METHOD DESCRIPTION: Wee1 degradation inhibitors, primary screen, cell-based, HeLa, Wee1K328M-luciferase, luminescence (AID 1321);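 note: cells exposed to compound for 20 h before luminescence read; 0% = DMSO alone and 100% = MG132 at 30 µM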
- STATED CONDITIONS: HeLa Luc-Wee1K328M stability, at 5 µM, stronger effect = higher value, 100% = proteasome inhibitor MG132 effect
Screen size: about 220,000 compounds; about 2,600 (1.2%) were called active. This is one part of a sample in which actives are shown more often than they occur.
Would you kindly list reporter increase for each of these compounds?
Give bare numbers, in %.

compound=O=c1ccnc(Nc2ccc(Cl)cc2)[nH]1 scale_unit=% measurement=1.16

Could I get reporter increase for every one of these entries?
1. CCS(=O)(=O)N1CCC(C(=O)N2CCN(c3ccccc3)CC2)CC1
2. Cc1csc(/N=C/N(C)C)c1C#N
3. COc1ccc2nc(Nc3nc4ccc(NC(C)=O)cc4s3)sc2c1

1. -1.23
2. -2.57
3. 10.4

Could I get reporter increase for every one of these entries?
1. CCCC(=O)Nc1nc2ccc(NC(=O)c3cccnc3)cc2s1
2. COC(=O)c1sccc1NN1C(=O)c2ccccc2C1=O
3. CN(CC(=O)Nc1cccc(F)c1)CC(=O)Nc1cccc([N+](=O)[O-])c1
4. CSc1nc2ccc(NC(=O)c3c(F)cccc3F)cc2s1

1. 3.09
2. -2.49
3. 3.36
4. 4.29

Could I get reporter increase for every one of these entries?
1. CC(C)n1c(=S)[nH]c2cc(C(F)(F)F)ccc21
2. Cc1ccc(C(=O)N/N=C\c2cc(Br)c(Br)o2)cn1
3. CCC(=O)Nc1ccc(C(=O)Nc2cccc(OC)c2)cc1
4. Cn1c(NC(=O)c2ccc3c(c2)OCO3)cc(=O)n(C)c1=O
5. Cc1cccc(-[n+]2c(-c3cccc(Br)c3)[nH]c3nc4ccccc4nc32)c1
6. CCCS(=O)(=O)N1CCCC(C(=O)N2CCN(c3ccccc3)CC2)C1 (centres undefined)
7. N/C(=N\S(=O)(=O)c1cc(C(F)(F)F)cc(C(F)(F)F)c1)c1cccs1

-2.42
1.9
0.16
-1.07
1.73
-1.94
-2.49

Could I get reporter increase for every one of these entries?
1. CC(C)Oc1ccc(C(=O)Nc2cc(=O)n(C)c(=O)n2C)cc1
2. COc1ccc2nc(Nc3nc4cc5c(cc4s3)OCCO5)sc2c1
3. CC1CCN(Cc2nc(-c3ccc(Cl)cc3)no2)CC1
4. CS(=O)(=O)N1CCC(C(=O)N2CCN(c3ccccc3)CC2)CC1
5. N#CCc1ccc(OC(=O)c2cccnc2)cc1
6. CCC(=O)Nc1cccc(NC(=O)c2cccnc2)c1
7. Cc1ccc2c(N)c(C(=O)c3ccccc3)sc2n1
8. CCOc1ccc(C2NC(=S)NC3=C2CCc2ccccc23)cc1 (centres undefined)

1. 11
2. 0.78
3. 8.97
4. 11.4
5. -2.7
6. 14.3
7. 3.2
8. 3.12

For the compound Cc1ccc(-c2noc(CN3CCN(Cc4ccccc4)CC3)n2)cc1 , what reporter increase is on record?
0.1

---

Would you kindly list reporter increase for each of these compounds?
- TESTED TARGET: Wee1-like protein kinase (Homo sapiens) (UniProt P30291)
- METHOD DESCRIPTION: Wee1 degradation inhibitors, primary screen, cell-based, HeLa, Wee1K328M-luciferase, luminescence (AID 1321);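 note: cells exposed to compound for 20 h before luminescence read; 0% = DMSO alone and 100% = MG132 at 30 µM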
- STATED CONDITIONS: HeLa Luc-Wee1K328M stability, at 5 µM, stronger effect = higher value, 100% = proteasome inhibitor MG132 effect
The whole screen tested about 220,000 compounds, of which about 2,600 (1.2%) were called active. The sample as a whole holds a higher share of actives than the screen did.
One number for each entry, in %.

compound=Cc1ccc(F)cc1NC(=O)N1CCCN(c2ccc(C(F)(F)F)cn2)CC1 tested_target="Wee1-like protein kinase (Homo sapiens) (UniProt P30291)" observable="reporter increase" measurement=-2.91
compound=Cc1cc(C)nc(SCc2cn3c(C)cc(C)nc3n2)n1 tested_target="Wee1-like protein kinase (Homo sapiens) (UniProt P30291)" observable="reporter increase" measurement=1.99
compound="O=C1CC(Cc2ccc(Cl)cc2)C(=O)N1c1cc(Cl)ccn1 (stereo unspecified)" tested_target="Wee1-like protein kinase (Homo sapiens) (UniProt P30291)" observable="reporter increase" measurement=2.19
compound=CC(=O)OCCOCn1cnn2c(=O)c(Br)c(C)nc12 tested_target="Wee1-like protein kinase (Homo sapiens) (UniProt P30291)" observable="reporter increase" measurement=5.31
compound=C=CCn1c(=S)sc2c(=O)[nH]c(C)nc21 tested_target="Wee1-like protein kinase (Homo sapiens) (UniProt P30291)" observable="reporter increase" measurement=9.98

Could you now consider this next compound?
For the compound CN(Cc1nc(-c2cnccn2)no1)Cc1n[nH]c2c1CCCCC2 , what reporter increase is on record?
-0.67
